Field: IC50. System: Xanthine dehydrogenase/oxidase (Bos taurus). Provenance: assorted publications.
Sequence (P80457 whole entry): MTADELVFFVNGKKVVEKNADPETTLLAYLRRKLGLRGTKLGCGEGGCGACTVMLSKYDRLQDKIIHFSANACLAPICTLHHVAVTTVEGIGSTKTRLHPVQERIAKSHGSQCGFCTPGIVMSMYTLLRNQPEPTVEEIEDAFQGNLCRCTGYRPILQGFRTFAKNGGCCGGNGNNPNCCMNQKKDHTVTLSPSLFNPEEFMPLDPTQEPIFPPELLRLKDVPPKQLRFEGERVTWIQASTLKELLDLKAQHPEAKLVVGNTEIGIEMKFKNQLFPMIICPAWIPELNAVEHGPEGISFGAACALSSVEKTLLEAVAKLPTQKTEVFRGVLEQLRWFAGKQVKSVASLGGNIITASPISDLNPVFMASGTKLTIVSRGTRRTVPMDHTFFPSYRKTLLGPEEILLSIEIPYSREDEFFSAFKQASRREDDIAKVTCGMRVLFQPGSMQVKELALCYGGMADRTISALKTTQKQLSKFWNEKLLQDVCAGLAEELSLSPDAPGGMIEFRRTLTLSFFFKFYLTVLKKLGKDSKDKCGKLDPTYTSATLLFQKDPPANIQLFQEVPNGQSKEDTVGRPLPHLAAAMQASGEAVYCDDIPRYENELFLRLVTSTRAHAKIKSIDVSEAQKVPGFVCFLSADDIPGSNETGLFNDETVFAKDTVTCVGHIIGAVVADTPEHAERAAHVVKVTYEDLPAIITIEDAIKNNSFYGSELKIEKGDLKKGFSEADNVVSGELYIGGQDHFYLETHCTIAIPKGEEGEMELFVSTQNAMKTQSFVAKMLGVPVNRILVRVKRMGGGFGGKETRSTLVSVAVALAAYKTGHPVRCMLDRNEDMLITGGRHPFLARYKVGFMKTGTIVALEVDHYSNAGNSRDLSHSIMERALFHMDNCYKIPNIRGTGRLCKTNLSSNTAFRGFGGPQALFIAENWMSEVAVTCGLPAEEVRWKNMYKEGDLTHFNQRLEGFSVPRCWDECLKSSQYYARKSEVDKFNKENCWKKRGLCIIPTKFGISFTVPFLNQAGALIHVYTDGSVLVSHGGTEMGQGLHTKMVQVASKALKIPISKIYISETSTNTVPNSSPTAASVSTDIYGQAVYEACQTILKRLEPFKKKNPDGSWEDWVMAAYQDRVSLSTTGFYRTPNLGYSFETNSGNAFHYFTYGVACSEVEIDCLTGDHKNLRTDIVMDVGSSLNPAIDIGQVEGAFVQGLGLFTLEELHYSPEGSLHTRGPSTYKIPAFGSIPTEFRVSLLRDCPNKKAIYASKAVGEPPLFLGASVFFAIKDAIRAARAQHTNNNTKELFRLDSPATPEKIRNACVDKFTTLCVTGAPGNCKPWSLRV
Your answer is read as µM, so omit the unit and give the number.

Example molecules with recorded IC50:
Could you please provide reported IC50 for `N#Cc1cnc(-c2ccncc2)[nH]1` ? Thanks! 5.6

Please look at this molecule and report its IC50: COc1ccc(OC)c(C(CC(=O)c2cc(Cl)cs2)NC(C)=O)c1 (configuration not stated) 20

Could you please provide reported IC50 for `Cc1cccc(Cn2cc(COc3ccc(F)cc3C=O)nn2)c1` ? Thanks! 1.18

***
Provide only the value of recorded IC50 for `CC(C)(C)C(=O)OCC1=CC[C@@H]2C(C(=O)O)=CO[C@@H](O[C@@H]3O[C@H](COC(=O)C(C)(C)C)[C@@H](OC(=O)C(C)(C)C)[C@H](OC(=O)C(C)(C)C)[C@H]3OC(=O)C(C)(C)C)[C@H]12` 91.2

Could you please provide reported IC50 for `CC(=O)OCC1=CC[C@@H]2C(C(=O)Nn3cccc3)=CO[C@@H](O[C@@H]3O[C@H](COC(C)=O)[C@@H](OC(C)=O)[C@H](OC(C)=O)[C@H]3OC(C)=O)[C@H]12` ? Thanks! 2.15

Could you please provide reported IC50 for COc1ccc(Nc2ncnc3c2C(c2ccc(O)c(OC)c2)c2c(c(=O)oc4ccccc24)O3)cc1 (configuration not stated) ? Thanks! 15

Please give measured IC50 of the following entry: `N#Cc1cc(NC(=O)c2ccncc2)ccc1OC1CCCC1` 5.7

Read the entry `Cc1cc(-c2nc(-c3ccc(OCC(C)C)c(C#N)c3)n[nH]2)ccn1` and write its reported IC50. 0.017

State, in one line, measured IC50 of `O=C1/C(=C/c2ccc(O)c(O)c2)Oc2cc(O)ccc21` 3.1

Quickly give me recorded IC50 for Cc1cc(-c2n[nH]c(-c3ccc(OCC4COC(C)(C)O4)c(C#N)c3)n2)ccn1 (configuration not stated) 0.06

Please indicate IC50 recorded for `CC(=O)OCC1=CC[C@@H]2C(C(=O)NCCC#N)=CO[C@@H](O[C@@H]3O[C@H](COC(C)=O)[C@@H](OC(C)=O)[C@H](OC(C)=O)[C@H]3OC(C)=O)[C@H]12` 15.8

Identify measured IC50 corresponding to `N#Cc1cc(NC(=O)c2cccnc2)ccc1OCc1ccccc1` 32.8

---

pIC50 for Xanthine dehydrogenase/oxidase (Bos taurus, UniProt P80457) - collated from the literature.
pIC50: −log10 of the molar value.

Known pIC50 results, listed for orientation:
Return reported pIC50 for target or system Xanthine dehydrogenase/oxidase (Bos taurus, UniProt P80457), item `CCCCCCCOc1ccc(NC(=O)c2ccncc2)cc1C#N` . 5.30

Look up Xanthine dehydrogenase/oxidase (Bos taurus, UniProt P80457) data: pIC50 of `C[C@@H]1O[C@@H](O[C@@H]2[C@@H](O[C@H]3CC[C@]4(C)[C@H]5CC=C6[C@@H]7C[C@H](CO)CC[C@]7(C(=O)O[C@H]7O[C@@H](CO[C@@H]8O[C@H](CO)[C@@H](O[C@@H]9O[C@@H](C)[C@H](O)[C@@H](O)[C@H]9O)[C@H](O)[C@H]8O)[C@H](O)[C@@H](O)[C@@H]7O)CC[C@@]6(C)[C@]5(C)CC[C@H]4C3(C)C)OC[C@@H](O)[C@H]2O)[C@H](O)[C@H](O)[C@H]1O` , then report it. < 4.00

Attention now shifts to the item below.
Provide the reported pIC50 (system: Xanthine dehydrogenase/oxidase (Bos taurus, UniProt P80457)) for `O=Cc1ccccc1OCc1cn(Cc2ccccc2)nn1` < 4.60
